The reported numbers originate from patent US6465491B2.

Listed compounds paired with reported melting point
Where a name gives a salt, the structure may show the parent alone.

Input: Could you share which melting point value was measured for Cl.Nc1cccc(-c2ccc(CCN3CC4C(C3)C4NCCCc3ccccc3)cc2)n1 (centres unmarked) ?
Output: 160 to 163 °C

Input: Do the same for Nc1cccc(-c2ccc(CCN3CCN(C(=O)Oc4ccccc4)CC3)cc2)n1 please
Output: 102 to 104 °C

Input: Do the same for Nc1cccc(-c2cccc(CCN3CCN(CCc4ccccc4)CC3)c2)n1 (as salt: hydrochloride) please
Output: 120 °C (dec.)

Input: Do the same for Nc1cccc(-c2ccc(CCCN3CCN(CCc4ccccc4)CC3)cc2)n1 (as salt: hydrochloride) please
Output: 125 to 140 °C

Input: Do the same for CN(Cc1ccc(-c2cccc(N)n2)cc1)C1CCCCC1 (as salt: hydrochloride) please
Output: > 250 °C

Input: Do the same for Nc1cccc(-c2ccc(CCN3Cc4ccccc4CC3C(=O)O)cc2)n1 (centres unmarked) (as salt: hydrochloride) please
Output: 110 °C (dec.)

Input: Do the same for Nc1cccc(-c2ccc(CN3CCCCC3)cc2)n1 (as salt: hydrochloride) please
Output: > 250 °C

Input: Do the same for Nc1cccc(-c2ccc(CCNCCc3ccccc3)cc2)n1 (as salt: hydrochloride) please
Output: 212 to 215 °C
